Target: Prostaglandin G/H synthase 1 (Ovis aries)
Sequence (P05979 whole entry): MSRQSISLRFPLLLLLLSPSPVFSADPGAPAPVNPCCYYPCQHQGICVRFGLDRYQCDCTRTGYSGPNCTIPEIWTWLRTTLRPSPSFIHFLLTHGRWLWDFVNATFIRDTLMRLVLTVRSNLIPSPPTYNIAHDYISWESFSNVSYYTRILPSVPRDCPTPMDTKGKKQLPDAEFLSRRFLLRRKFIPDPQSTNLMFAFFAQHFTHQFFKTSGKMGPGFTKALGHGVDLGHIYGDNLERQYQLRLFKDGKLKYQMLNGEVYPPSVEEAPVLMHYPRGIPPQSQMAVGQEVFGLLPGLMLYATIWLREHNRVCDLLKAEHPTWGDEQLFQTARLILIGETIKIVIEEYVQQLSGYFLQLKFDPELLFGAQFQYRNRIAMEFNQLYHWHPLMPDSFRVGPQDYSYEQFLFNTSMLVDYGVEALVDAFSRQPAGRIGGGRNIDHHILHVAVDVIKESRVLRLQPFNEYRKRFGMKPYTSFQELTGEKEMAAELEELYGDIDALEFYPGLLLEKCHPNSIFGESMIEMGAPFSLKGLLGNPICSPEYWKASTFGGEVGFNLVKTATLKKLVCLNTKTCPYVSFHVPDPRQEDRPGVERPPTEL
Test: Inhibition of ovine COX1 assessed as reduction in PGF2alpha production using arachidonic acid as substrate by colorimetric method
measuredEndpoint: IC50 (µM)

{"structureSmilesString": "COc1ccc(-c2cc(CSc3nc4ccccc4c(=O)n3-c3ccc(Br)cc3)on2)cc1", "measuredEndpoint": "IC50", "unitOfMeasure": "µM", "experimentalValue": 5.34}
{"structureSmilesString": "COc1ccc(-n2c(SCc3cc(-c4ccc(Cl)cc4)no3)nc3ccccc3c2=O)cc1", "measuredEndpoint": "IC50", "unitOfMeasure": "µM", "experimentalValue": 7.68}
{"structureSmilesString": "COc1ccc(-n2c(SCc3cn(-c4ccccc4)nn3)nc3ccccc3c2=O)cc1", "measuredEndpoint": "IC50", "unitOfMeasure": "µM", "experimentalValue": 10.5}

1: O=c1c2ccccc2nc(SCc2cn(-c3ccc(Br)cc3)nn2)n1-c1ccc(Cl)cc1
2: COc1ccc(-n2c(SCc3cn(-c4ccc(C(=O)O)cc4)nn3)nc3ccccc3c2=O)cc1
Lab notebook, comparison: 1 versus 2 , higher IC50 goes to which? Could you answer with the label of the item you picked? 2

P: O=c1c2ccccc2nc(SCc2cn(-c3ccccc3)nn2)n1-c1ccc(Br)cc1
Q: O=C(O)c1ccc(-n2cc(CSc3nc4ccccc4c(=O)n3-c3ccc(Br)cc3)nn2)cc1
Lab notebook, comparison: P versus Q , higher IC50 goes to which? Could you answer with the label of the item you picked? Q
(Q: 8.67 µM, P: 4.78 µM)

====

System: Rattus norvegicus
Experiment: Ulcerogenicity in Wistar rat assessed as hyperemia in gastric mucosa at 60 mg/kg, po after 6 hrs
Type: toxicity, organism-based
Conditions: in vivo
measuredEndpoint: Activity

The cases that follow already have their Activity on record.
{"structureSmilesString": "O=c1c2ccccc2nc(SCc2cn(-c3ccc(Br)cc3)nn2)n1-c1ccc(Br)cc1", "measuredEndpoint": "Activity", "experimentalValue": "Toxic"}
{"structureSmilesString": "C#CCSc1nc2ccccc2c(=O)n1-c1ccc(Br)cc1", "measuredEndpoint": "Activity", "experimentalValue": "Non-Toxic"}
{"structureSmilesString": "O=c1c2ccccc2nc(SCc2cn(-c3ccc(Cl)cc3)nn2)n1-c1ccc(Br)cc1", "measuredEndpoint": "Activity", "experimentalValue": "Toxic"}
{"structureSmilesString": "O=c1c2ccccc2nc(SCc2cn(-c3ccc(Cl)cc3)nn2)n1-c1ccccc1", "measuredEndpoint": "Activity", "experimentalValue": "Non-Toxic"}

Reported Activity (Rattus norvegicus) for entry O=C(O)c1ccc(-n2cc(CSc3nc4ccccc4c(=O)n3-c3ccc(Cl)cc3)nn2)cc1 is Toxic

====

Biological target: Serine/threonine-protein kinase Chk1 (Homo sapiens)
Sequence (O14757 whole entry): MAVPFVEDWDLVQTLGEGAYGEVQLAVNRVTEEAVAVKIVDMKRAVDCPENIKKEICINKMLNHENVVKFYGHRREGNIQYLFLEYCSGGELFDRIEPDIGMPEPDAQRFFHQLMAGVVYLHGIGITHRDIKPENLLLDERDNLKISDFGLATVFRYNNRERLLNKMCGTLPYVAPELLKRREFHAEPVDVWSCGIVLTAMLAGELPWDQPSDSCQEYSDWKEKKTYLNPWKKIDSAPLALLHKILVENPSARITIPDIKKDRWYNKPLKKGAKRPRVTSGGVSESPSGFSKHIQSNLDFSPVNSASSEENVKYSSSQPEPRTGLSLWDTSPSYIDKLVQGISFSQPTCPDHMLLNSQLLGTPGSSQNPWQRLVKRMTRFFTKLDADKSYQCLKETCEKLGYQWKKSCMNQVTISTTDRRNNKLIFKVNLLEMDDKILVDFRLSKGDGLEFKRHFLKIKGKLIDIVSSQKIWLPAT
measuredEndpoint: pIC50
Quick note: pIC50 means taking -log10 of the concentration in moles per liter.

Reported pIC50 (Serine/threonine-protein kinase Chk1 (Homo sapiens)) for entry CCCC[C@@H](Sc1nc2ccccc2c(=O)n1-c1cccc(C)c1)C(=O)N1CCC[C@]2(CCCNC2)C1 is 5.89

====

Tested on: THP-1
Assay: Cytotoxicity against human THP1 cells assessed as reduction in cell viability after 30 hrs by MTS assay
Type: cell-based
Details: thp-1, 30 h
measuredEndpoint: Activity

{"structureSmilesString": "O=C(O)c1ccc(-n2cc(CSc3nc4ccccc4c(=O)n3-c3ccc(Cl)cc3)nn2)cc1", "assayTarget": "THP-1", "Activity": "Non-Toxic"}
{"structureSmilesString": "O=c1c2ccccc2nc(SCc2cn(-c3ccc(Br)cc3)nn2)n1-c1ccc(Br)cc1", "assayTarget": "THP-1", "Activity": "Non-Toxic"}
{"structureSmilesString": "O=C(O)Cc1ccccc1Nc1c(Cl)cccc1Cl", "assayTarget": "THP-1", "Activity": "Non-Toxic"}
{"structureSmilesString": "O=c1c2ccccc2nc(SCc2cn(-c3ccc(Cl)cc3)nn2)n1-c1ccc(Br)cc1", "assayTarget": "THP-1", "Activity": "Non-Toxic"}

The measured Activity associated with C#CCSc1nc2ccccc2c(=O)n1-c1ccc(Br)cc1 reads Non-Toxic

The measured Activity associated with O=c1c2ccccc2nc(SCc2cn(-c3ccc(Cl)cc3)nn2)n1-c1ccccc1 reads Non-Toxic

====

Biological target: Prostaglandin G/H synthase 1 (Ovis aries, UniProt P05979)
Test: Inhibition of ovine COX1 assessed as reduction in PGF2alpha production using arachidonic acid as substrate by colorimetric method
pIC50: −log10 of the molar value.
measuredEndpoint: pIC50

The cases that follow already have their pIC50 on record.
{"structureSmilesString": "O=c1c2ccccc2nc(SCc2cn(-c3ccc(Cl)cc3)nn2)n1-c1ccc(Cl)cc1", "pIC50": 5.20}
{"structureSmilesString": "COc1ccc(-c2cc(CSc3nc4ccccc4c(=O)n3-c3ccc(Cl)cc3)on2)cc1", "pIC50": 4.95}
{"structureSmilesString": "O=c1c2ccccc2nc(SCc2cc(-c3ccc(Cl)cc3)no2)n1-c1ccc(Br)cc1", "pIC50": 5.04}
{"structureSmilesString": "O=c1c2ccccc2nc(SCc2cc(-c3ccc(Cl)cc3)no2)n1-c1ccc(Cl)cc1", "pIC50": 5.25}
{"structureSmilesString": "C#CCSc1nc2ccccc2c(=O)n1-c1ccc(Cl)cc1", "pIC50": 5.37}

P: O=c1c2ccccc2nc(SCc2cn(-c3ccc(Br)cc3)nn2)n1-c1ccccc1
Q: COc1ccc(-c2cc(CSc3nc4ccccc4c(=O)n3-c3ccccc3)on2)cc1OC
R: O=C(O)c1ccc(-n2cc(CSc3nc4ccccc4c(=O)n3-c3ccc(Cl)cc3)nn2)cc1
Falling order of pIC50, please. Use the labels to give the ranking in the order requested. R, P, Q

====

Target: Prostaglandin G/H synthase 1 (Ovis aries, UniProt P05979)
Experiment: Inhibition of ovine COX1 assessed as reduction in PGF2alpha production using arachidonic acid as substrate by colorimetric method
pIC50: −log10 of the molar value.
measuredEndpoint: pIC50

{"structureSmilesString": "COc1ccc(-n2c(SCc3cc(-c4ccc(OC)c(OC)c4)no3)nc3ccccc3c2=O)cc1", "measuredEndpoint": "pIC50", "experimentalValue": 5.19}
{"structureSmilesString": "O=c1c2ccccc2nc(SCc2cn(-c3ccc(Cl)cc3)nn2)n1-c1ccc(Br)cc1", "measuredEndpoint": "pIC50", "experimentalValue": 5.28}
{"structureSmilesString": "O=C(O)c1ccc(-n2cc(CSc3nc4ccccc4c(=O)n3-c3ccccc3)nn2)cc1", "measuredEndpoint": "pIC50", "experimentalValue": 5.23}
{"structureSmilesString": "C#CCSc1nc2ccccc2c(=O)n1-c1ccccc1", "measuredEndpoint": "pIC50", "experimentalValue": 5.42}
{"structureSmilesString": "C#CCSc1nc2ccccc2c(=O)n1-c1ccc(Br)cc1", "measuredEndpoint": "pIC50", "experimentalValue": 5.41}
